Items are presented alongside their recorded inhibition.
target: DNA dC->dU-editing enzyme APOBEC-3G (Homo sapiens); assay: APOBEC3G deaminase inhibitor retest, confirmation, biochemical, fluorescence, single-stranded DNA substrate, single concentration (AID 493152); conditions: recombinant A3G ssDNA deaminase, UDG/FAM-TAMRA fluorescence; at 20 µM; active compounds read high
Some of the results follow. Activity calls are given as the source filed them.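 How the source made its calls: active means inhibition reaching a set limit in any replicate at 20 µM, the limit being 80% of the first screen's; inactive means the rest.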

Some compounds with recorded inhibition:
1) Cc1n[nH]c(=S)n1/N=C/c1ccc(Br)o1
80.4% (active)
2) Cc1cc(C)c2c(-c3ccc(F)cc3)c(C#N)c(=O)n(C)c2n1
-1.37% (inactive)
3) COc1ccccc1-n1c(-c2cc(-c3ccco3)[nH]n2)n[nH]c1=S
50.2% (active)
4) Cc1cc(-c2n[nH]c(=S)n2-c2ccc(C)c(C)c2)no1
74.9% (active)
5) O=C1CC(Sc2ncn[nH]2)C(=O)N1c1ccccc1 (centres undefined)
40.4% (active)
6) COc1cccc(C(=O)CC(=O)C(=O)Nc2ccc([N+](=O)[O-])cc2C)c1
2.17% (inactive)
7) Cc1ccc(C(=O)c2c(NC(=O)c3ccccc3)sc(C)c2C)cc1
24.2% (active)
8) CCOc1ccc(NC(=O)c2ccc(NC(=O)COC(=O)c3ccc(NC(=O)CC#N)cc3)cc2)cc1
51.5% (active)

Query: Looking for the measured inhibition of O=C1C=CC(=O)N1c1ccc(N2CCCCC2)cc1 , can you help?
Response: 91% (active)

Query: Looking for the measured inhibition of Fc1ccccc1/C=N/n1c(-c2cccnc2)n[nH]c1=S , can you help?
Response: 84.9% (active)

Query: Looking for the measured inhibition of Cc1nc([N+](=O)[O-])nn1C12CC3CC(CC(Br)(C3)C1)C2 , can you help?
Response: 50.8% (active)

Query: Looking for the measured inhibition of COc1ccc(OCc2nnc3n2N=C(c2ccccc2)C(CC(=O)O)S3)cc1 (centres undefined) , can you help?
Response: 27.3% (active)

Query: Looking for the measured inhibition of S=c1[nH]nc(NCCc2ccccc2)s1 , can you help?
Response: 81.5% (active)

Query: Looking for the measured inhibition of Cc1nc2scc(-c3cccs3)c2c(=O)n1N , can you help?
Response: 0.32% (inactive)

###

target: DNA dC->dU-editing enzyme APOBEC-3G (Homo sapiens) (UniProt Q9HC16); assay: APOBEC3G deaminase inhibitor retest, confirmation, biochemical, fluorescence, single-stranded DNA substrate, single concentration (AID 493152); settings: recombinant A3G ssDNA deaminase, UDG/FAM-TAMRA fluorescence; at 20 µM
Sequence (Q9HC16 whole entry, looked up): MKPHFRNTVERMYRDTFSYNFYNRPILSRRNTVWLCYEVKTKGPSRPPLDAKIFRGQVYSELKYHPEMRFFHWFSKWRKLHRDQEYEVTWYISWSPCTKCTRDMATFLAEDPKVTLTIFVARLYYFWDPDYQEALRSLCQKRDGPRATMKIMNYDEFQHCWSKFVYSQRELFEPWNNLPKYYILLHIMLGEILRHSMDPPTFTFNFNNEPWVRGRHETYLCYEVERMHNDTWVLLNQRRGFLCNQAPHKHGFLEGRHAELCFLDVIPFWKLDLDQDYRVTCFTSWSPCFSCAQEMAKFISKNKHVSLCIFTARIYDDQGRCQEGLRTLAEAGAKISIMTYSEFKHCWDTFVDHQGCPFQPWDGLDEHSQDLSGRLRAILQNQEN
The other results are listed elsewhere or left out. Active and inactive are the calls of the source.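 Rule for the calls: active = inhibition reaching a set limit in any replicate at 20 µM, the limit being 80% of the first screen's; inactive = the rest.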
Reply using exactly one outcome from y (active), n (inactive)

1) CCc1c(C)[nH]c(=S)c(C#N)c1C
y

Now let's try a different one.
Query: Test call for this compound, please: COc1ccc2[nH]c(=S)cc(C)c2c1
Response: y

###

biological target: DNA dC->dU-editing enzyme APOBEC-3G (Homo sapiens); experiment: APOBEC3G deaminase inhibitor retest, confirmation, biochemical, fluorescence, single-stranded DNA substrate, single concentration (AID 493152); conditions: recombinant A3G ssDNA deaminase, UDG/FAM-TAMRA fluorescence; at 20 µM; active compounds read high
The other results are listed elsewhere or left out.
parameter: inhibition (%)
API: value field is a number in %; no unit string.

Some compounds with recorded inhibition:
1) S=c1[nH]nc(-c2ccco2)n1/N=C/c1ccccc1
-3.73
2) CCOc1ccc(NC(=O)Nc2cc(C)on2)cc1
0.05
3) S=c1[nH]nc(-c2ccncc2)n1/N=C/c1ccccc1Cl
95.7
4) Cc1cc(-c2n[nH]c(=S)n2/N=C/c2ccco2)n[nH]1
58.5
5) CC1=C/C(=N\OS(=O)(=O)c2ccccc2)C=CC1=O
63.8
6) COC(=O)c1cccc(-n2[nH]nnc2=S)c1
-14.5

Query: Looking for the measured inhibition of CCn1c(CN2C(=O)CSc3ccccc32)n[nH]c1=S , can you help?
Response: 23.9

Query: Looking for the measured inhibition of S=c1[nH]nc(-c2ccc(Cl)cc2)n1CC1CCCO1 (stereo not drawn) , can you help?
Response: 55.9
